- Test system: human iPSC neurons and astrocytes treated with 5 μM sAβ42s
- assay name: Focused small molecule screen, double culture (neuron, astrocyte), rescue from sAβ42s toxicity, high content imaging
- Format: cell-based
- condition parameters: 6.25 μM compound; double culture; 5 μM sAβ42s
Where a SMILES comes first, the peptide text is derived from it. [ ]: non-standard residue; d: D form. Nle = CCCC[C@H](N)C(=O)O
# % B3T rescue annotations
measurement label: % B3T rescue (%)

{"molecule": "CN(C)S(=O)(=O)c1ccc2c(c1)/C(=C/c1cc3c([nH]1)CCCC3)C(=O)N2", "measurement label": "% B3T rescue", "readout value": 4}
{"molecule": "Cc1ccc2c(c1)C(=O)[C@]1(O)CCN(c3ccccc3)C1=N2 [(S)-(−)-Blebbistatin]", "measurement label": "% B3T rescue", "readout value": 41}
{"molecule": "Cc1ccc(S(=O)(=O)/C=C/C#N)cc1", "measurement label": "% B3T rescue", "readout value": 38}
{"molecule": "COC(=O)C1(C)c2[nH]c3ccccc3c2CCN1C(=O)CCl (centres unmarked)", "measurement label": "% B3T rescue", "readout value": 27}
{"molecule": "CCCC[C@@H](C=O)NC(=O)[C@H](CC(C)C)NC(=O)[C@H](CC(C)C)NC(C)=O [Ac-Leu-Leu-Nle-CHO] (Ac-Leu-Leu-[Nle]-aldehyde)", "measurement label": "% B3T rescue", "readout value": 14}

* * *

- Test system: human iPSC neurons, astrocytes and microglia treated with 5 μM sAβ42s
- assay name: Focused small molecule screen, triple culture (neuron, astrocyte, microglia), rescue from sAβ42s toxicity
- Assay type: cell-based
- condition parameters: 50.00 μM compound
Please use Criterion met whenever % B3T rescue is not below 50%, and Criterion not met whenever it is.

{"molecule": "O=C(COc1ccc(Cl)cc1)NC1CCC(NC(=O)COc2ccc(Cl)cc2)CC1 (centres unmarked)", "class assignment": "Criterion not met"}
{"molecule": "O=C1NC(=O)C(c2ccccc2[N+](=O)[O-])=C1Nc1ccc(O)c(Cl)c1", "class assignment": "Criterion met"}
{"molecule": "CN(C)S(=O)(=O)c1ccc2c(c1)/C(=C/c1cc3c([nH]1)CCCC3)C(=O)N2", "class assignment": "Criterion not met"}
{"molecule": "Cc1ccc2c(c1)C(=O)[C@]1(O)CCN(c3ccccc3)C1=N2 [(S)-(−)-Blebbistatin]", "class assignment": "Criterion not met"}
{"molecule": "CCCn1c(C)c(C(=O)c2cccc3ccccc23)c2ccccc21", "class assignment": "Criterion not met"}

* * *

- Test system: human iPSC neurons and astrocytes treated with 5 μM sAβ42s
- assay name: Focused small molecule screen, double culture (neuron, astrocyte), rescue from sAβ42s toxicity, high content imaging
- Type: cell-based
- condition parameters: Homo sapiens, iPSC; 6.25 μM compound; double culture; 5 μM sAβ42s; read-out: % Cux2 rescue
Where a SMILES comes first, the peptide text is derived from it. The star is where a group is joined. Cbz = O=C(OCc1ccccc1)*
# percent rescue from sAβ42s toxicity at 6.25 µM annotations
measurement label: percent rescue from sAβ42s toxicity at 6.25 µM

{"compound": "CN1CCN(CCOc2cc(OC3CCOCC3)c3c(Nc4c(Cl)ccc5c4OCO5)ncnc3c2)CC1", "experimental system": "human iPSC neurons and astrocytes treated with 5 μM sAβ42s", "readout value": "7%"}
{"compound": "CCCC[C@@H](C=O)NC(=O)[C@H](CC(C)C)NC(=O)OCc1ccccc1", "experimental system": "human iPSC neurons and astrocytes treated with 5 μM sAβ42s", "readout value": "70%"}
{"compound": "N#Cc1ccnc(Nc2cc(C3CCN(C4COC4)CC3)cc(N3CCC(F)(F)C3)n2)c1", "experimental system": "human iPSC neurons and astrocytes treated with 5 μM sAβ42s", "readout value": "18%"}
{"compound": "CC(C)C[C@@H](C=O)NC(=O)[C@H](CC(C)C)NC(=O)[C@H](CC(C)C)NC(=O)OCc1ccccc1 [MG-132] (Cbz-Leu-Leu-Leu-aldehyde)", "experimental system": "human iPSC neurons and astrocytes treated with 5 μM sAβ42s", "readout value": "80%"}

* * *

- Tested on: human iPSC neurons, astrocytes and microglia treated with 5 μM sAβ42s
- assay name: Focused small molecule screen, triple culture (neuron, astrocyte, microglia), rescue from sAβ42s toxicity
- Type: cell-based
- condition parameters: 3.13 μM compound
Where a SMILES comes first, the peptide text is derived from it. [ ]: non-standard residue; d: D form. Nle = CCCC[C@H](N)C(=O)O

{"compound": "OC(CNc1ccccc1)Cn1c2ccc(Br)cc2c2cc(Br)ccc21 (centres unmarked)", "unit symbol": "%", "% MAP2 rescue": 2}
{"compound": "CC(C)[C@H](CO)Nc1nc(Nc2cccc(Cl)c2)c2ncn(C(C)C)c2n1", "unit symbol": "%", "% MAP2 rescue": 15}
{"compound": "O=C(Nc1cccc(Br)c1)c1cccc(S(=O)(=O)N2CCCCCC2)c1", "unit symbol": "%", "% MAP2 rescue": 18}
{"compound": "O=C1Nc2ccc3ncsc3c2/C1=C/Nc1ccc(S(=O)(=O)Nc2ccccn2)cc1", "unit symbol": "%", "% MAP2 rescue": 15}
{"compound": "CCN(CC)CCNC(=O)c1c(C)[nH]c(/C=C2\\C(=O)Nc3ccc(F)cc32)c1C", "unit symbol": "%", "% MAP2 rescue": 88}
{"compound": "C=C(c1ccc(C(=O)O)c(F)c1)c1cc2c(cc1C)C(C)(C)CCC2(C)C", "unit symbol": "%", "% MAP2 rescue": 43}
{"compound": "CCCC[C@@H](C=O)NC(=O)[C@H](CC(C)C)NC(=O)[C@H](CC(C)C)NC(C)=O [Ac-Leu-Leu-Nle-CHO] (Ac-Leu-Leu-[Nle]-aldehyde)", "unit symbol": "%", "% MAP2 rescue": 55}
{"compound": "Cc1c(C)c(NCC(=O)N(C)C2CCN(Cc3ccc(C(N)=O)cc3)CC2)c(C)c(C)c1N", "unit symbol": "%", "% MAP2 rescue": 10}

* * *

- System: human iPSC neurons and astrocytes treated with 5 μM sAβ42s
- assay name: Focused small molecule screen, double culture (neuron, astrocyte), rescue from sAβ42s toxicity, high content imaging
- Assay type: cell-based
- condition parameters: 50 μM compound; double culture; 5 μM sAβ42s

{"compound": "O=C(Nc1cccc(Br)c1)c1cccc(S(=O)(=O)N2CCCCCC2)c1 [AK 7]", "experimental system": "human iPSC neurons and astrocytes treated with 5 μM sAβ42s", "% Synapse rescue [%]": "−5"}
{"compound": "N#CC(c1ccnc(NCCc2cccnc2)n1)c1nc2ccccc2s1 (centres unmarked) [AS601245]", "experimental system": "human iPSC neurons and astrocytes treated with 5 μM sAβ42s", "% Synapse rescue [%]": 19}
{"compound": "O=C1NC(=O)C(c2ccccc2[N+](=O)[O-])=C1Nc1ccc(O)c(Cl)c1 [SB 415286]", "experimental system": "human iPSC neurons and astrocytes treated with 5 μM sAβ42s", "% Synapse rescue [%]": 12}
{"compound": "O=C1Nc2ccc3ncsc3c2/C1=C/Nc1ccc(S(=O)(=O)Nc2ccccn2)cc1 [GW8510]", "experimental system": "human iPSC neurons and astrocytes treated with 5 μM sAβ42s", "% Synapse rescue [%]": 49}
{"compound": "O=C1NC(=O)c2c1c1c3ccccc3n3c1c1c2c2ccccc2n1C1CCC3O1 [SB 218078]", "experimental system": "human iPSC neurons and astrocytes treated with 5 μM sAβ42s", "% Synapse rescue [%]": "−15"}
{"compound": "CN(C)S(=O)(=O)c1ccc2c(c1)/C(=C/c1cc3c([nH]1)CCCC3)C(=O)N2 [SU6656]", "experimental system": "human iPSC neurons and astrocytes treated with 5 μM sAβ42s", "% Synapse rescue [%]": 11}
{"compound": "CN1C(=O)C(Cc2c[nH]c3ccccc23)NC1=S (centres unmarked) [Necrostatin-1]", "experimental system": "human iPSC neurons and astrocytes treated with 5 μM sAβ42s", "% Synapse rescue [%]": 15}
{"compound": "CCN(CC)CCNC(=O)c1c(C)[nH]c(/C=C2\\C(=O)Nc3ccc(F)cc32)c1C [SU 11248]", "experimental system": "human iPSC neurons and astrocytes treated with 5 μM sAβ42s", "% Synapse rescue [%]": 21}

* * *

- Tested on: human iPSC neurons and astrocytes treated with 5 μM sAβ42s
- assay name: Focused small molecule screen, double culture (neuron, astrocyte), rescue from sAβ42s toxicity, high content imaging
- Format: cell-based
- condition parameters: 25 μM compound; double culture; 5 μM sAβ42s
Where a SMILES comes first, the peptide text is derived from it. [ ]: non-standard residue; d: D form. Nle = CCCC[C@H](N)C(=O)O

{"molecule": "N#CC(c1ccnc(NCCc2cccnc2)n1)c1nc2ccccc2s1 (stereo not shown)", "unit symbol": "%", "% Cux2 rescue": 32}
{"molecule": "CCCC[C@@H](C=O)NC(=O)[C@H](CC(C)C)NC(=O)[C@H](CC(C)C)NC(C)=O [Ac-Leu-Leu-Nle-CHO] (Ac-Leu-Leu-[Nle]-aldehyde)", "unit symbol": "%", "% Cux2 rescue": 87}
{"molecule": "O=C1Nc2ccc3ncsc3c2/C1=C/Nc1ccc(S(=O)(=O)Nc2ccccn2)cc1", "unit symbol": "%", "% Cux2 rescue": "−18"}
{"molecule": "CCN(CC)CCNC(=O)c1c(C)[nH]c(/C=C2\\C(=O)Nc3ccc(F)cc32)c1C", "unit symbol": "%", "% Cux2 rescue": 59}
{"molecule": "Cc1ccc(S(=O)(=O)/C=C/C#N)cc1", "unit symbol": "%", "% Cux2 rescue": 82}
{"molecule": "O=C1Nc2ccc(I)cc2/C1=C/c1cc(Br)c(O)c(Br)c1", "unit symbol": "%", "% Cux2 rescue": 115}
{"molecule": "COC(=O)C1(C)c2[nH]c3ccccc3c2CCN1C(=O)CCl (stereo not shown)", "unit symbol": "%", "% Cux2 rescue": 66}
{"molecule": "CN(C)S(=O)(=O)c1ccc2c(c1)/C(=C/c1cc3c([nH]1)CCCC3)C(=O)N2", "unit symbol": "%", "% Cux2 rescue": 126}
{"molecule": "Cc1ccc2c(c1)C(=O)[C@]1(O)CCN(c3ccccc3)C1=N2 [(S)-(−)-Blebbistatin]", "unit symbol": "%", "% Cux2 rescue": 5}
{"molecule": "C=C[C@@]1(C)CC(=O)[C@]2(O)[C@@]3(C)[C@@H](O)CCC(C)(C)[C@@H]3[C@H](OC(=O)CCN(C)C)[C@H](OC(C)=O)[C@@]2(C)O1.Cl", "unit symbol": "%", "% Cux2 rescue": 21}
